conditions: in n-propanol, 298.2 K
measurement_type: solubility (mole fraction)

| compound | measurement_type | number |
| --- | --- | --- |
| O=C(O)c1ccccc1O | solubility (mole fraction) | 0.132 |

====

settings: in acetone, 298.2 K
measurement_type: solubility (mole fraction)

| compound | number |
| --- | --- |
| O=C(O)c1ccccc1O | 0.137 |

====

conditions: in water, 308.2 K

| compound | solubility (mole fraction) |
| --- | --- |
| O=C(O)c1ccccc1O | 0.000355 |

====

details: in n-propanol, 328.2 K

| compound | solubility (mole fraction) |
| --- | --- |
| O=C(O)c1ccccc1O | 0.179 |

Data provenance is BigSolDB 2.1.
